molecular target: human CD33 on primary human dendritic cells (human, UniProt P20138 18-364); assay: cell-based or functional assay
Sequence (P20138 18-364): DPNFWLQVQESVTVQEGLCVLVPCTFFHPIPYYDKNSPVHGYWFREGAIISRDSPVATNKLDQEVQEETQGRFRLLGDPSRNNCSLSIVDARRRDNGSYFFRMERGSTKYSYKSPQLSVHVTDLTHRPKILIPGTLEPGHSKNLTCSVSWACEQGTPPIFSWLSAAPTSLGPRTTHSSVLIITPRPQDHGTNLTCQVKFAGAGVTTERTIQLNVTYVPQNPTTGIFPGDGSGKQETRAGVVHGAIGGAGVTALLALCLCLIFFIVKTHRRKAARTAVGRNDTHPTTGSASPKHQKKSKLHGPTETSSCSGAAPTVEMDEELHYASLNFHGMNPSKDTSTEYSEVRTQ
measuredParameter: Maximal reduction in CD33 (% remaining)
Your answer should be a plain number; it is taken to be in % remaining.

Consider the reported Maximal reduction in CD33 (% remaining) for these binders:
binder	valueReported
anti-CD33 antibody 6C7H8 (antibody, IgG1, V domains shown, VH/VL only; also called 6C7H8 IgG1; parental antibody) VH: EVQLVESGGGLVQPGGSLRLSCAGSGFTFSNYCMNWVRQAPGKGLEWVAEIRLKSNNYVTNYAASVKGRFTISRDDSKNSVYLQMNSLKTEDTGVYYCTRAGYYVPFAYWGQGTLVTVSS VL: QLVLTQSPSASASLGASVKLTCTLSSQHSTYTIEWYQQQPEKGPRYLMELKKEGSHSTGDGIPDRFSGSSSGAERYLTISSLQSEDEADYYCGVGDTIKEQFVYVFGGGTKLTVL	21.5
anti-CD33 antibody 6C7H14 (antibody, V domains shown, VH/VL only) VH: EVQLVESGGGLVQPGGSLRLSCAGSGFTFSNYAMNWVRQAPGKGLEWVAEIRLKSNNYVTNYAASVKGRFTISRDDSKNSVYLQMNSLKTEDTGVYYCTRAGYYVPFAYWGQGTLVTVSS VL: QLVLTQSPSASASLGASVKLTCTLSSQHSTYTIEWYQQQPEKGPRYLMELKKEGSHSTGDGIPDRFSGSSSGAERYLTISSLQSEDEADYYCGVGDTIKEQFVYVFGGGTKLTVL	28.4

Now consider a different binder.
Return reported Maximal reduction in CD33 (% remaining); argument: anti-CD33 antibody 6C7H28 (antibody, V domains shown, VH/VL only) VH: EVQLVESGGGLVQPGGSLRLSCAGSGFTFSDYSMNWVRQAPGKGLEWVAEIRLKSNNYVTNYAASVKGRFTISRDDSKNSVYLQMNSLKTEDTGVYYCTRAGYYVPFAYWGQGTLVTVSS VL: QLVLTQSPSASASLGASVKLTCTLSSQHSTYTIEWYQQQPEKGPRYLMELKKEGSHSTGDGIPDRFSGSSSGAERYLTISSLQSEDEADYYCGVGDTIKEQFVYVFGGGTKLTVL 27.6
